- assay_system: T1, human IL-18BP (human, UniProt O95998 31-194)
- T1 construct: UniProt printed as 095998; also called hIL-18BP
- T1 sequence: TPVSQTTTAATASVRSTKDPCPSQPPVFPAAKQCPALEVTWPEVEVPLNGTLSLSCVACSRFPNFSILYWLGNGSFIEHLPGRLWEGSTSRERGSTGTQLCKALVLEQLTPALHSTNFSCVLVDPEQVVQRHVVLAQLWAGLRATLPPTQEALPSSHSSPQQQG
- protocol_description: BLI, apparent KD
property_label: Kd (nM)

>>> experimental_value("SA301a HC-Y100M (antibody, V domains shown) VH: QVQLQESGPGLVKPSQTLSLTCTVSGYSITSDYNSHWIRQPPGKGLEWIGYIHYSGSTNYNPSLKSRVTISRDTSKNQFSLKLSSVTAADTAVYYCARNYGSIMVNYFDYWGQGTLVTVSS VL: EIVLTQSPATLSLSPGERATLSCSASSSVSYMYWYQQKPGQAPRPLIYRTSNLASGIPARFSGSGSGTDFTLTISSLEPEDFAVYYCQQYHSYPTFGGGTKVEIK")
2.07
>>> experimental_value("SA301a HC-I99M (antibody, name in Kabat numbering, V domains shown, IgG1 kappa) VH: QVQLQESGPGLVKPSQTLSLTCTVSGYSITSDYNSHWIRQPPGKGLEWIGYIHYSGSTNYNPSLKSRVTISRDTSKNQFSLKLSSVTAADTAVYYCARNYGSMYVNYFDYWGQGTLVTVSS VL: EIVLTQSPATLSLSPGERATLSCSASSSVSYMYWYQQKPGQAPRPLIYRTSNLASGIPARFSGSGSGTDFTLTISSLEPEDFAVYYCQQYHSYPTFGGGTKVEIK")
0.21
